Test system: Myzus persicae
protocol_details: Myzus persicae spray test (MYZUPE), contrastive examples
Format: in vivo
assay_conditions: 120 h, 5 dat, read-out: % efficacy
reported_property: Emax at 4 g/ha
The answer consists of two parts: a number and, after it, its unit.

Answer for every listed entry: what is its Emax at 4 g/ha? The entries follow.
1. CCS(=O)(=O)c1ccc(N(C)C(=O)N(C)C)nc1-c1nc2cc(C(F)(F)F)nnc2n1C
2. CCS(=O)(=O)c1ccc(NC(=O)NC)nc1-c1nc2cc(C(F)(F)F)nnc2n1C
3. CCS(=O)(=O)c1ccc(N(C)C(=O)N(C)C)nc1-c1nc2cc(C(F)(F)C(F)(F)F)nnc2n1C
4. CCS(=O)(=O)c1ccc(NC(=O)NC)nc1-c1nc2cc(C(F)(F)C(F)(F)F)nnc2n1C
5. CCNC(=O)Nc1ccc(S(=O)(=O)CC)c(-c2nc3cc(C(F)(F)C(F)(F)F)nnc3n2C)n1 [Comparison, reference compound]

Result:
["90%", "90%", "90%", "100%", "0%"]

Problem: What value of Emax at 4 g/ha on Myzus persicae does CCNC(=O)Nc1ccc(S(=O)(=O)CC)c(-c2nc3cc(C(F)(F)F)nnc3n2C)n1 [Prior art according to WO2017/025419, reference compound] have?
Result: 0%

---

Can you tell me pest or weed control at 100 g/ha for the items I'm about to list?
Tested on: Myzus persicae
protocol_details: Myzus persicae spray test
Format: in vivo
assay_conditions: foliar, 120 h, application rate 100 g/ha, Chinese cabbage leaf discs, after 5 days, read-out: efficacy
Experimental: Solvent: 78 parts by weight of acetone • • 1.5 parts by weight of dimethylformamide Emulsifier: alkylaryl polyglycol ether To produce a suitable active ingredient formulation, 1 part by weight of active ingredient is dissolved with the specified parts by weight of solvent and made up to the desired concentration with water containing an emulsifier concentration of 1000 ppm. […] After 5 days, the efficacy in % is determined. […]
Numbers only, in %.

Answered cases to consult:
Problem: Quick one: pest or weed control at 100 g/ha for CNC(=O)N(C)c1ccc(S(C)(=O)=O)c(-c2nc3cc(C(F)(F)F)nnc3n2C)n1 [Example I-6] ?
Result: 90

Problem: Then this compound: CCS(=O)(=O)c1ccc(N(C)C(=O)N(C)C)nc1-c1nc2cc(C(F)(F)F)nnc2n1C [Example I-12]
Result: 100

Problem: What about this compound? CCS(=O)(=O)c1ccc(NC(=O)NC)nc1-c1nc2cc(C(F)(F)F)nnc2n1C [Example I-1]
Result: 100

Problem: Request: CNC(=O)Nc1ccc(S(C)(=O)=O)c(-c2nc3cc(C(F)(F)F)nnc3n2C)n1 [Example I-5]
Result: 90

// below: pest or weed control at 100 g/ha requested for another compound
Problem: Form field: reported pest or weed control at 100 g/ha of CCS(=O)(=O)c1ccc(NC(=O)N(C)C)nc1-c1nc2cc(C(F)(F)F)nnc2n1C [Example I-2]
Result: 90

---

System: Myzus persicae
protocol_details: Myzus persicae spray test
Assay type: in vivo
assay_conditions: foliar, 120 h, application rate 20 g/ha, Chinese cabbage leaf discs, after 5 days, read-out: efficacy
Description: Solvent: 78 parts by weight of acetone • • 1.5 parts by weight of dimethylformamide Emulsifier: alkylaryl polyglycol ether To produce a suitable active ingredient formulation, 1 part by weight of active ingredient is dissolved with the specified parts by weight of solvent and made up to the desired concentration with water containing an emulsifier concentration of 1000 ppm. […] After 5 days, the efficacy in % is determined. […]
reported_property: pest or weed control at 20 g/ha
Field note: include the unit after the figure.

Known results for compounds:
Problem: Name the recorded pest or weed control at 20 g/ha for `CCS(=O)(=O)c1ccc(N(C)C(=O)NC)nc1-c1nc2cc(C(F)(F)F)nnc2n1C` .
Result: 100%

Problem: // repeat for `CCS(=O)(=O)c1ccc(NC(=O)N(C)C)nc1-c1nc2cc(C(F)(F)F)nnc2n1C` and report
Result: 100%

Problem: // query: `CCS(=O)(=O)c1ccc(NC(=O)NC)nc1-c1nc2cc(C(F)(F)F)nnc2n1C`
Result: 90%

# input for lookup
Problem: Reported pest or weed control at 20 g/ha, compound `CCS(=O)(=O)c1ccc(N(C)C(=O)N(C)C)nc1-c1nc2cc(C(F)(F)F)nnc2n1C` : ____
Result: 90%

---

Test system: Myzus persicae
protocol_details: Myzus persicae drench test (MYZUPE D)
Type: in vivo
assay_conditions: soil, 240 h, 10 dat, read-out: % efficacy
reported_property: Emax at 0.8 ppm (%)
Give bare numbers, in %.

Problem: Requested field: Emax at 0.8 ppm. Item: `CN(C)C(=O)Nc1ccc(S(C)(=O)=O)c(-c2nc3cc(C(F)(F)C(F)(F)F)nnc3n2C)n1`
Result: 95

Problem: # iterate: `CCS(=O)(=O)c1ccc(N(C)C(=O)NC)nc1-c1nc2cc(C(F)(F)C(F)(F)F)nnc2n1C`
Result: 99

Problem: Also `CCS(=O)(=O)c1ccc(N(C)C(=O)N(C)C)nc1-c1nc2cc(C(F)(F)C(F)(F)F)nnc2n1C` ?
Result: 95

Problem: Same again, this time with CCNC(=O)Nc1ccc(S(=O)(=O)CC)c(-c2nc3cc(C(F)(F)C(F)(F)F)nnc3n2C)n1 [Comparison, reference compound]
Result: 0

Let us examine a further case.
Problem: Recorded Emax at 0.8 ppm for `CCS(=O)(=O)c1ccc(NC(=O)N(C)C)nc1-c1nc2cc(C(F)(F)C(F)(F)F)nnc2n1C` , please?
Result: 98

meta.source: patent US11505553B2
